- TARGET: Abeta oligomers (Homo sapiens, UniProt P05067)
- Sequence (P05067 672-713 limits assumed): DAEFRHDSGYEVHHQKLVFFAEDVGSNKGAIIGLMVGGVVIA
- METHOD: Peptide microarray, binding of FITC Abeta oligomers to immobilized peptides
- CONDITIONS_USED: 1 hour at room temperature, control subtracted, averaged
[ ]: non-standard residue; d: D form. d(hArg) = N=C(N)NCCCC[C@@H](N)C(=O)O; dPhg = N[C@@H](C(=O)O)c1ccccc1
This listing pairs substances with measured Binding signal to Abeta oligomers.
Report as a plain number; the unit rfu is understood.

Incoming: Using the record for rprvrl06yhwnr (H-[dR][dP][dR][dV][dR][dL][dPhg][dY][dH][dW][dN][dR]-NH2; SMILES CC(C)C[C@@H](NC(=O)[C@@H](CCCNC(=N)N)NC(=O)[C@H](NC(=O)[C@@H](CCCNC(=N)N)NC(=O)[C@H]1CCCN1C(=O)[C@H](N)CCCNC(=N)N)C(C)C)C(=O)N[C@@H](C(=O)N[C@H](Cc1ccc(O)cc1)C(=O)N[C@H](Cc1c[nH]cn1)C(=O)N[C@H](Cc1c[nH]c2ccccc12)C(=O)N[C@H](CC(N)=O)C(=O)N[C@H](CCCNC(=N)N)C(N)=O)c1ccccc1) [ANK15, D3 derivative; 06: Phenylglycine (D)] , state its measured Binding signal to Abeta oligomers.
Outgoing: 0.6

Incoming: Using the record for rkr07rlvtkrnr (H-[dR][dK][dR][d(hArg)][dR][dL][dV][dT][dK][dR][dN][dR]-NH2; SMILES CC(C)C[C@@H](NC(=O)[C@@H](CCCNC(=N)N)NC(=O)[C@@H](CCCCNC(=N)N)NC(=O)[C@@H](CCCNC(=N)N)NC(=O)[C@@H](CCCCN)NC(=O)[C@H](N)CCCNC(=N)N)C(=O)N[C@@H](C(=O)N[C@@H](C(=O)N[C@H](CCCCN)C(=O)N[C@H](CCCNC(=N)N)C(=O)N[C@H](CC(N)=O)C(=O)N[C@H](CCCNC(=N)N)C(N)=O)[C@H](C)O)C(C)C) [ANK16, D3 derivative; 07: D-Homoarginine] , state its measured Binding signal to Abeta oligomers.
Outgoing: 1.4

# input for lookup
Incoming: Using the record for rkrirl06yhinr (H-[dR][dK][dR][dI][dR][dL][dPhg][dY][dH][dI][dN][dR]-NH2; SMILES CC[C@@H](C)[C@@H](NC(=O)[C@@H](Cc1c[nH]cn1)NC(=O)[C@@H](Cc1ccc(O)cc1)NC(=O)[C@H](NC(=O)[C@@H](CC(C)C)NC(=O)[C@@H](CCCNC(=N)N)NC(=O)[C@H](NC(=O)[C@@H](CCCNC(=N)N)NC(=O)[C@@H](CCCCN)NC(=O)[C@H](N)CCCNC(=N)N)[C@H](C)CC)c1ccccc1)C(=O)N[C@H](CC(N)=O)C(=O)N[C@H](CCCNC(=N)N)C(N)=O) [ANK2, D3 derivative; 06: Phenylglycine (D)] , state its measured Binding signal to Abeta oligomers.
Outgoing: 1.6
